measured.target: Glycogen synthase kinase-3 beta (Homo sapiens)
Sequence (P49841 whole entry): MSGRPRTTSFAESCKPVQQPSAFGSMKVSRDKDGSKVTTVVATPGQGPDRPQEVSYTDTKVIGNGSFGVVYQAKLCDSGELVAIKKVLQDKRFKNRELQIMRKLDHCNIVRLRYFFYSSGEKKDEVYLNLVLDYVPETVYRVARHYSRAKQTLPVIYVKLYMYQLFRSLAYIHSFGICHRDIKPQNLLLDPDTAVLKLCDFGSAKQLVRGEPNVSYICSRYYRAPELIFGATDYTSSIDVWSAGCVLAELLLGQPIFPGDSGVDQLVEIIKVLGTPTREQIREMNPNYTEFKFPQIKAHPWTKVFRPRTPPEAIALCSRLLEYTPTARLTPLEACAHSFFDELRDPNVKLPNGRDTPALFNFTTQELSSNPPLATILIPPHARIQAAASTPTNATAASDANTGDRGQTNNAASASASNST
assay.details: concentration-response blocking of human GSK3B – biochemical, luminescence, cell-free homogeneous, retest, dose response (AID 434954)
pEC50: −log10 of the molar value.
Reported pEC50 values follow for various compounds

>  <compound>
COC(=O)c1cccc(Nc2nc(-c3ccncc3)nc3ccccc23)c1 [MLS001163930]

>  <pEC50>
< 3.52

$$$$
>  <compound>
COc1cccc(C2c3c(n[nH]c3C)N=C3CC(C)(C)CC(=O)C32)c1 (stereo not drawn) [SMR000347812]

>  <pEC50>
6.02

$$$$
>  <compound>
O=C(O)COc1ccc2occ(C(=O)c3ccccc3)c2c1

>  <pEC50>
5.37

$$$$
>  <compound>
COc1ccc2nc(NC(=O)CSC3=NCCS3)sc2c1 [SMR000012424]

>  <pEC50>
< 3.52

$$$$
>  <compound>
N#CC(C#N)c1nc2ccccc2nc1-[n+]1cccc([N-]C(=O)c2ccccc2)c1

>  <pEC50>
< 3.52

$$$$
>  <compound>
CC(C)CC(=O)Nc1ccccc1-c1nnn(CC(=O)N2CCc3ccccc3C2)n1 [SMR000122537]

>  <pEC50>
< 3.52

$$$$
>  <compound>
COc1cccc2cc(C(=O)OC(C)C(=O)c3ccc(C)cc3)c(=O)oc12 (stereo not drawn)

>  <pEC50>
< 3.52

$$$$
>  <compound>
c1ccc(Nc2nc(NCCN3CCOCC3)nc(Nc3ccccc3)n2)cc1

>  <pEC50>
< 3.52

$$$$
>  <compound>
CCN1CCN(c2nc(Nc3cc(OC)ccc3OC)nc(Nc3cc(OC)ccc3OC)n2)CC1 [SMR000439674]

>  <pEC50>
< 3.52

$$$$
>  <compound>
CCSc1ccc2nnc(-c3cccc(F)c3)n2n1

>  <pEC50>
4.73

$$$$

Missing value: pEC50, Glycogen synthase kinase-3 beta (Homo sapiens), entry Cc1ccc(C)c(Nc2nc(-c3ccncc3)nc3ccccc23)c1 . Fill in?
< 3.52

Can you look up pEC50 on Glycogen synthase kinase-3 beta (Homo sapiens) for O=C(O)/C=C/c1cn(-c2ccccc2)nc1-c1cccc([N+](=O)[O-])c1 [MLS000774824] ?
< 3.52

// map CSCCC(C(=O)NCc1cccs1)N1C(=O)c2ccccc2C1=O (stereo not drawn) [SMR000150898] to recorded pEC50 (system: Glycogen synthase kinase-3 beta (Homo sapiens))
< 3.52

Param readout= pEC50; system= Glycogen synthase kinase-3 beta (Homo sapiens); entry= O=C(COc1ccccc1)N1CCN(S(=O)(=O)c2cccs2)CC1 ; returns value.
< 3.52

Please provide the recorded pEC50 for CCCn1nc(NC(=O)c2cccs2)c2cc3ccccc3nc21 , tested on Glycogen synthase kinase-3 beta (Homo sapiens).
< 3.52

Hi! What's the reported pEC50 for Cc1csc(NC(=O)CN2C(=O)c3ccccc3C2=O)c1C(N)=O on Glycogen synthase kinase-3 beta (Homo sapiens)?
< 3.52

# get_value(readout= pEC50, system= Glycogen synthase kinase-3 beta (Homo sapiens)) for O=C(CSc1ccc2nnc(-c3cccs3)n2n1)N1CCCC1
< 3.52

Give Glycogen synthase kinase-3 beta (Homo sapiens) pEC50 for COCCn1c(SCC(=O)Nc2ccc(S(N)(=O)=O)cc2)nc2ccccc21
< 3.52
